experimental system: 3-hydroxyacyl-CoA dehydrogenase type-2 (Homo sapiens)
assay details: qHTS Assay for Inhibitors of HSD17B4, hydroxysteroid (17-beta) dehydrogenase 4
condition context: recombinant HSD17B10, NADH fluorescence kinetic; series mostly up to 57.1 µM
Out of some 75,000 compounds screened, about 5,700 (7.6%) were called active. Roughly 7% stayed inconclusive and do not appear here. Calls come from the whole dose curve; as a rule, active = well fitted inhibition curve with a large enough effect; inconclusive = small, poorly fitted or top-dose-only effect; inactive = no such curve, though single readings can be large or run the other way. Only a selection was taken, and actives are over-represented in it overall.
A correct response names exactly one class from active, inactive

As a guide, the following entries are already answered.
compound | class
Oc1ccc2c(c1)OCC1c3cc4c(cc3OC21)OCO4 (stereo unspecified) | inactive
CN/C(=C\[N+](=O)[O-])NCCSCc1csc(CN(C)C)n1 | inactive
CC(Sc1nc2ccccc2c(=O)n1Cc1ccco1)C(=O)c1ccccc1 (stereo unspecified) | inactive
Cn1cccc1Cc1nnc(SCC(=O)NCCc2ccccc2)n1-c1ccc(F)cc1 | inactive
Cc1nc2ccccc2c(=O)n1CCCn1ccnc1 | inactive
Cc1nc2c(c(=O)n1Cc1ccco1)c1nc3ccccc3nc1n2Cc1ccccc1 | active
C=CCn1c(COc2cccc3cccnc23)nnc1SCC(=O)OC | active
Cn1c(N)c(C(=O)COC(=O)c2cc(C(F)(F)F)nc3c(C(F)(F)F)cccc23)c(=O)n(C)c1=O | inactive

Problem: What outcome does the record of this test show for `C=CCn1c(COc2ccccc2C)nnc1SCC(=O)O` ?
Result: inactive

Problem: What outcome does the record of this test show for `C=CCn1c(SCc2cc(C(=O)OC)c(C)o2)nnc1-c1ccncc1` ?
Result: inactive

Problem: What outcome does the record of this test show for `C=CCn1c(COc2ccccc2)nnc1SCC(=O)NCC(=O)OCC` ?
Result: inactive

* * *

experimental system: 3-hydroxyacyl-CoA dehydrogenase type-2 (Homo sapiens)
assay details: qHTS Assay for Inhibitors of HSD17B4, hydroxysteroid (17-beta) dehydrogenase 4;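 note: the protocol describes HADH2 (HSD17B10) and not the HSD17B4 of the title; nearly all actives have a fitted effect of over 70% in size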
condition context: recombinant HSD17B10, NADH fluorescence kinetic; series mostly up to 57.1 µM
The campaign covered roughly 75,000 compounds. About 5,700 (7.6%) were called active. Inconclusive results (about 7%) are left out. Calls follow the shape of the dose curve; as a rule, active = well fitted inhibition curve with a large enough effect; inconclusive = small, poorly fitted or top-dose-only effect; inactive = no such curve, though single readings can be large or run the other way. For the sample, actives were picked, then their nearest neighbours and some compounds at random.
A correct response names exactly one class from T (active), F (inactive)

Problem: What outcome does the record of this test show for O=C1c2oc3ccccc3c(=O)c2C(c2cccc(O)c2)N1c1ccccn1 (stereo not given) ?
Result: F

Problem: What outcome does the record of this test show for CC(=NCC1CCCO1)c1c(O)[nH]c(=O)[nH]c1=O (stereo not given) ?
Result: F

Problem: What outcome does the record of this test show for `COC(=O)c1ccc(N(CC(=O)NC2CCCC2)C(=O)CNC(=O)c2ccco2)cc1` ?
Result: F

Problem: What outcome does the record of this test show for `CCOc1ccc(NC(=O)CSc2nc3c(c(=O)n2-c2ccccc2OC)SCC3)cc1` ?
Result: F

Problem: What outcome does the record of this test show for `Cn1c(-c2ccc(C(=O)c3ccccc3)s2)nc2ccccc21` ?
Result: T

Problem: What outcome does the record of this test show for `CC1CCN(C(=O)CSc2ccc3nnc(-c4cccc(F)c4)n3n2)CC1` ?
Result: F

Problem: What outcome does the record of this test show for BrC1C(Br)C(Br)C(Br)C(Br)C1Br (stereo not given) ?
Result: F

Problem: What outcome does the record of this test show for `C=CCn1c(N)c(S(=O)(=O)c2cccs2)c2nc3ccccc3nc21` ?
Result: T

Problem: What outcome does the record of this test show for `Cc1ccccc1NC(=O)c1ccccc1` ?
Result: F

Problem: What outcome does the record of this test show for `C=CCn1c(N)c(C(=O)OCC(C)C)c2nc3ccccc3nc21` ?
Result: T

Problem: What outcome does the record of this test show for `O=C1c2cccnc2C(=O)N1Cc1cccs1` ?
Result: F

Problem: What outcome does the record of this test show for `CC(C)Cn1c(N)c(C(=O)NCc2cccs2)c2nc3ccccc3nc21` ?
Result: T

* * *

experimental system: 3-hydroxyacyl-CoA dehydrogenase type-2 (Homo sapiens)
assay details: qHTS Assay for Inhibitors of HSD17B4, hydroxysteroid (17-beta) dehydrogenase 4;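 note: the protocol describes HADH2 (HSD17B10) and not the HSD17B4 of the title; nearly all actives have a fitted effect of over 70% in size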
condition context: recombinant HSD17B10, NADH fluorescence kinetic; series mostly up to 57.1 µM
Among all 75,000 compounds or so, about 5,700 (7.6%) were called active. Not shown: some 7% with an inconclusive outcome. Calls follow the shape of the dose curve; as a rule, active = well fitted inhibition curve with a large enough effect; inconclusive = small, poorly fitted or top-dose-only effect; inactive = no such curve, though single readings can be large or run the other way. The list comes from a sample in which actives are over-represented; it also holds close analogues and randomly drawn compounds.
A correct response names exactly one class from true (1) = active, false (0) = inactive

molecule | class
Cc1ccc2nc(NC3=NCN(CCc4ccccc4)CN3)nc(C)c2c1 | false (0)

Problem: What outcome does the record of this test show for `O=C(NCc1ccc(Cl)cc1)c1cc2c(nc3sccn32)s1` ?
Result: true (1)

Problem: What outcome does the record of this test show for COc1ccc(C(=O)N(Cc2ccc(N(C)C)cc2)C2CCS(=O)(=O)C2)cc1 (configuration not stated) ?
Result: false (0)

Problem: What outcome does the record of this test show for `Cc1c(O)cc(O)c2c(=O)c(-c3ccc(O)cc3)coc12` ?
Result: false (0)

Problem: What outcome does the record of this test show for `O=C(NCc1cn2ccsc2n1)Nc1ccc(Cl)cc1` ?
Result: false (0)

Problem: What outcome does the record of this test show for Cc1ccc(Cn2ccc(NC(=O)C3C4CCC(C4)C3C(=O)O)n2)cc1 (configuration not stated) ?
Result: false (0)

Problem: What outcome does the record of this test show for `Cc1cc(Nc2cccc(F)c2)n2ncnc2n1` ?
Result: false (0)

Problem: What outcome does the record of this test show for CCC(=O)c1ccc(OCC(O)CN2CC(C)OC(C)C2)cc1 (configuration not stated) ?
Result: false (0)

Problem: What outcome does the record of this test show for `c1cncc(CNc2ccnc(-c3ccc4c(c3)OCO4)n2)c1` ?
Result: true (1)

Problem: What outcome does the record of this test show for `COCc1cc(C)nc(Nc2cc(C)ccc2C)c1C#N` ?
Result: false (0)

Problem: What outcome does the record of this test show for `O=c1cc(Cn2nnc(-c3ccc(Cl)cc3)n2)nc2sccn12` ?
Result: false (0)

Problem: What outcome does the record of this test show for `CCCCCN(C(=O)NC(=O)Nc1ccccc1C)S(C)(=O)=O` ?
Result: false (0)

Problem: What outcome does the record of this test show for `OCCN1CCN(CC/C=C2\c3ccccc3Sc3ccc(C(F)(F)F)cc32)CC1` ?
Result: false (0)

Problem: What outcome does the record of this test show for `CCOC(=O)c1sc(NC(=O)CSc2ncccn2)c(C#N)c1C` ?
Result: false (0)

Problem: What outcome does the record of this test show for `O=C(C1CCN(CC2CCCCC2)CC1)N1CCCC1` ?
Result: false (0)

Problem: What outcome does the record of this test show for `C[C@@H]1O[C@@H](O[C@@H]2[C@@H](O)[C@H](OCCc3ccc(O)c(O)c3)O[C@H](CO[C@@H]3O[C@H](CO)[C@@H](O)[C@H](O)[C@H]3O)[C@H]2OC(=O)/C=C/c2ccc(O)c(O)c2)[C@H](O)[C@H](O)[C@H]1O` ?
Result: true (1)

Problem: What outcome does the record of this test show for CC1OC(OCC2OC(Oc3c(-c4ccc(O)c(O)c4)oc4cc(O)cc(O)c4c3=O)C(O)C(O)C2O)[C@@H](O)C(O)C1O (some centres not stated) ?
Result: false (0)

Problem: What outcome does the record of this test show for `Cc1cccc(CNc2ccnc(-c3cccnc3)n2)c1` ?
Result: false (0)

Problem: What outcome does the record of this test show for `O=C(O)c1ccc(COc2c(F)c(F)cc(F)c2F)o1` ?
Result: false (0)

Problem: What outcome does the record of this test show for `COc1ccc(OC)c([C@H](O)CNC(=O)CN)c1` ?
Result: false (0)

Problem: What outcome does the record of this test show for `CCCn1c(=O)c2[nH]c(C3CCCC3)nc2n(CCC)c1=O` ?
Result: false (0)

Problem: What outcome does the record of this test show for `COc1ccc(-c2nnc(SCC(=O)c3cccs3)o2)c(OC)c1` ?
Result: false (0)

* * *

experimental system: 3-hydroxyacyl-CoA dehydrogenase type-2 (Homo sapiens) (UniProt Q99714)
assay details: qHTS Assay for Inhibitors of HSD17B4, hydroxysteroid (17-beta) dehydrogenase 4;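 note: the protocol describes HADH2 (HSD17B10) and not the HSD17B4 of the title; nearly all actives have a fitted effect of over 70% in size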
condition context: recombinant HSD17B10, NADH fluorescence kinetic; series mostly up to 57.1 µM
The whole screen tested about 75,000 compounds, of which about 5,700 (7.6%) were called active. Not shown: some 7% with an inconclusive outcome. Calls come from the whole dose curve; as a rule, active = well fitted inhibition curve with a large enough effect; inconclusive = small, poorly fitted or top-dose-only effect; inactive = no such curve, though single readings can be large or run the other way. What follows is part of a selection rich in actives, with near analogues and random picks from the rest.
A correct response names exactly one class from class 1 = active, class 0 = inactive

compound | class
Cc1cnc(CNc2nc(-c3cccnc3)nc3ccccc23)cn1 | class 0

Problem: What outcome does the record of this test show for `CC(C)OCCCNc1ncnc2c1[nH]c1ccc(F)cc12` ?
Result: class 1

* * *

experimental system: 3-hydroxyacyl-CoA dehydrogenase type-2 (Homo sapiens)
assay details: qHTS Assay for Inhibitors of HSD17B4, hydroxysteroid (17-beta) dehydrogenase 4;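 note: the protocol describes HADH2 (HSD17B10) and not the HSD17B4 of the title; nearly all actives have a fitted effect of over 70% in size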
condition context: recombinant HSD17B10, NADH fluorescence kinetic; series mostly up to 57.1 µM
Among all 75,000 compounds or so, about 5,700 (7.6%) were called active. Inconclusive results (about 7%) are left out. Calls follow the shape of the dose curve; as a rule, active = well fitted inhibition curve with a large enough effect; inconclusive = small, poorly fitted or top-dose-only effect; inactive = no such curve, though single readings can be large or run the other way. The full list was thinned out, with actives kept by preference.
A correct response names exactly one class from T for active, F for inactive

As a guide, the following entries are already answered.
compound | experimental system | class
O=C(c1c(Cl)nc2sccn12)N1CCCc2ccccc21 | 3-hydroxyacyl-CoA dehydrogenase type-2 (Homo sapiens) | F
Cc1cc(C)cc(N(CC(=O)Nc2c(C)n(C)n(-c3ccccc3)c2=O)S(C)(=O)=O)c1 | 3-hydroxyacyl-CoA dehydrogenase type-2 (Homo sapiens) | F
CCOC(=O)C1CCCN(C(=O)c2ccc(CS(=O)(=O)c3ccc(Br)cc3)o2)C1 (stereo not drawn) | 3-hydroxyacyl-CoA dehydrogenase type-2 (Homo sapiens) | F

Problem: What outcome does the record of this test show for `COc1ccc(-c2ccnc(SCC(=O)N3CCOCC3)n2)cc1` ?
Result: T

Problem: What outcome does the record of this test show for `COc1ccc(S(=O)(=O)N2CCC(C(=O)N3CCc4ccccc4C3)CC2)cc1OC` ?
Result: F

Problem: What outcome does the record of this test show for `CN(C)CCCNC(=O)c1ccc2[nH]c3ccccc3c2c1` ?
Result: T

Problem: What outcome does the record of this test show for Cc1c(NC(=O)C(C)OC(=O)c2cc3c4ccccc4n(C)c3s2)c(=O)n(-c2ccccc2)n1C (stereo not drawn) ?
Result: T

Problem: What outcome does the record of this test show for `CC(=O)Nc1ccc(S(=O)(=O)NCCc2ccccc2)cc1` ?
Result: F

Problem: What outcome does the record of this test show for COc1ccc(-c2nc(CS(=O)CC(=O)NCc3ccccn3)c(C)o2)cc1 (stereo not drawn) ?
Result: F
